Test system: MS2 coat protein
measurement.protocol: apparent KD of MS2 coat protein; designed switch direction (-1 OFF switch, 1 ON switch): -1; higher = weaker reporter binding
run.parameters: Eterna round: R95; input ligand: microRNA oligo, concentration not stated
quantity.name: apparent KD of MS2 coat protein (nM)
Give just the numeric value; nM need not be written.

IN: State, for MS2 coat protein, measured apparent KD of MS2 coat protein of the sequence listed here: UUUAAUUUUUUUUUUUUACAAGCUUUUUGCUCGUCUUAUACAUGAGGAUCACCCAUGUAAGUGGGAGAUAAAUUAUC [JMF 21] (puzzle: Sensor v3, turn-off variant 2)
OUT: 53.3

IN: State, for MS2 coat protein, measured apparent KD of MS2 coat protein of the sequence listed here: CUUCGUAUAGAGGAUAUAGGAUACUACGGUGUCCUAGAAGGCUGUACAUGAGGAUCACCCAUGUACUUCAGAUC [Exclusion 6 - B - 14:a] (puzzle: Exclusion 6)
OUT: 11.5

IN: State, for MS2 coat protein, measured apparent KD of MS2 coat protein of the sequence listed here: GACGCUAAAGGAUAUACAUGAGGAUCACCCAUGUUGAGGAAGGUUAGAUGAGGAGUAAGUAGAAGGUUAGACGA [JR_Exclu3_Sub091] (puzzle: Exclusion 3)
OUT: 27.4

Values compiled from the supplement of paper PMC9170038.
